Taken from paper PMC13541613.

Molecular target: ZNF721 DBD2 (Homo sapiens, UniProt Q8TF20-2 395-923)
Sequence (Q8TF20 383-911): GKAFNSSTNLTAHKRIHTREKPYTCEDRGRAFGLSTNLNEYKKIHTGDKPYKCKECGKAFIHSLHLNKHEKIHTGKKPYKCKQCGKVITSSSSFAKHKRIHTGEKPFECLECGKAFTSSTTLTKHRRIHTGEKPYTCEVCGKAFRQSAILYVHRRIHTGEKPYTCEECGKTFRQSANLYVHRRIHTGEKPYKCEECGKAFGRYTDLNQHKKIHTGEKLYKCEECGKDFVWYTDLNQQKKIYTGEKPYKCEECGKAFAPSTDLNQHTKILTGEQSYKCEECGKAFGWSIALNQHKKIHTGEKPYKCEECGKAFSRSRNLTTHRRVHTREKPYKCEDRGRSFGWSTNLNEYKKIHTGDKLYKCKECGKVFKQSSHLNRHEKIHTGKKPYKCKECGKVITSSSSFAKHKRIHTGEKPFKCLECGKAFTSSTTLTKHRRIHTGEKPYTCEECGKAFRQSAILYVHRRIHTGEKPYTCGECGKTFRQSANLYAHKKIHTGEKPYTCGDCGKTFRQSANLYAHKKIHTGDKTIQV
Experiment: HT-SELEX; 20 mM HEPES pH 7, 140 mM KCl, 5 mM NaCl, 1 mM K2HPO4, 2 mM MgSO4, 100 uM EGTA, ZnSO4, 0.1% Tween20; room temperature, 1 h; high values mean tight binding
Details: protein: ivt; tags: eGFP (N-terminal); dsDNA, one strand shown
measurement.type: binding signal (relative 10-mer count)
The response must be a number in relative 10-mer count with no trailing unit.

Example results:
{"columns": ["sequence.entry", "measurement.type", "u", "numeric.result"],
 "data": [
  ["CCCTCCCCCA", "binding signal", "relative 10-mer count", 0.00839],
  ["ACGAAAAAAA", "binding signal", "relative 10-mer count", 0.0612],
  ["CACACCCCCC", "binding signal", "relative 10-mer count", 0.0018]
]}

// below: binding signal requested for another sequence
Using the record for `CCCCCCCCCG` , report its binding signal.
0.00156
